Tested on: wheat (Tr)
experimental.details: Test Example 5: crop plant selectivity by upland field soil treatment (wheat), phytotoxicity
Assay type: in vivo
Parameters: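 grade of crop injury; 5 = at least 90%; 4 = 70 to 90%; 3 = 50 to 70%; 2 = 30 to 50%; 1 = 10 to 30%; 0 = under 10%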
protocol.conditions: dose 1.6 g ai/10a, 21st day after application
Exercise: for every item that follows, state its recorded Phytotoxicity Tr.

> print(dat)
                               entry.smiles  endpoint.value
1  Cc1cc2c(-c3ccc(C(F)(F)F)n(C)c3=O)c(F)cc(Cl)c2o1               1
2  CCOC(=O)c1cc(-c2ccc(C(F)(F)F)n(C)c2=O)c(F)cc1Cl               0
3  C#CCOc1cc(-c2ccc(C(F)(F)F)n(N)c2=O)c(F)cc1Cl               1
4  C#CCOc1cc(-c2ccc(C(F)(F)F)n(C)c2=O)c(Cl)cc1Cl               2
5  CCc1cc2c(-c3ccc(C(F)(F)F)n(C)c3=O)c(F)cc(Cl)c2o1               1
6  C#CCN1C(=O)COc2cc(F)c(-c3ccc(C(F)(F)F)n(C)c3=O)cc21               0
7  C#CCN1C(=O)COc2cc(Cl)c(-c3ccc(C(F)(F)F)n(C)c3=O)cc21               1
8  COCSc1cc(-c2ccc(C(F)(F)F)n(C)c2=O)c(F)cc1Cl               1

Proceed to the following item.
Input line: Endpoint output: Phytotoxicity Tr of Cn1c(C(F)(F)F)ccc(-c2cc(OCC(F)(F)F)c(Cl)cc2F)c1=O . Value?
Output line: 1
